Listing of recorded melting point by entry.

Enquiry: Look up melting point: CCc1noc(C)c1-c1[nH]c2ccccc2c1C(O)CN(C)C (stereo unspecified)
Return: 178 to 180 °C

----------
Property: melting point; scope: individual compounds

Here's what some known entries look like.
COC1(C[N+](=O)[O-])OC(=O)c2cc(C)c(C)cc21 (centres undefined) ... 147 to 150 °C
CC12C=CC(=O)C=C1C1OC1C1C2CCC2(C)C(=O)CCC12 (centres undefined) ... 182 to 194 °C
FC(F)(F)c1cccc(CSc2nc3cnccc3[nH]2)c1 ... 148 to 150 °C

Enquiry: Reported melting point for COc1c(Nc2ncc(Cl)c(N[C@H]3[C@@H](C(N)=O)[C@@H]4C=C[C@H]3C4)n2)ccc2c1CC(N1CCOCC1)CCC2 (some centres undefined) : what is it?
Return: 139 to 148 °C

Enquiry: Consider the compound `CC(=CN=Cc1ccccc1Cl)c1cccs1` and give its measured melting point.
Return: 102 °C

Enquiry: Reported melting point for `COC(=O)C(=O)c1ccc(OCCOc2ccc3ccccc3c2)c(C)c1` : what is it?
Return: 118 to 119 °C

Enquiry: Query: melting point; subject: CCCCS(=O)(=O)NC(Cc1ccc(N2CCN(CCC3CCN(C(=O)OC(C)(C)C)CC3)C2=O)cc1)C(=O)OC (centres undefined)
Return: 124 to 126 °C

Enquiry: Name the recorded melting point for `O=c1[nH]c2cc(Cl)ccc2c(=O)n1CCCN1CC=C(c2ccc(Cl)cc2)CC1` .
Return: 225 to 227 °C

Enquiry: Which melting point is listed for COC(=O)C(CCSC)NC(=O)c1ccc(NC(=O)Cc2cn(S(=O)(=O)c3ccc(C)cc3)cn2)cc1-c1ccccc1 (centres undefined) ?
Return: 202 to 203 °C

----------
melting point overview

# annotated cases, reported melting point shown
C=CCNc1ccc(N(CCO)CCO)cc1[N+](=O)[O-] ... 73 to 75 °C
COCC(=O)C(=NNc1ccccc1F)C(=O)OC ... 121 to 126 °C
COc1ccc(C(=O)NNC(=O)c2occ(-c3ccccc3)c2-c2ccccc2)cc1F ... 110 to 112 °C
CCCn1c(=O)c2c(nc(C=Cc3cc(OC)c(OC)cc3S(=O)(=O)N3CCCCC3)n2C)n(CCC)c1=O ... 266 to 268 °C
Cc1cnn(-c2ccc(C(=O)N3Cc4cccn4Cc4ccccc43)c(Cl)n2)c1 ... 155 to 156 °C
Cc1cc(Cl)ccc1N1C(=O)CON(C)C1=S ... 141 to 143 °C
Clc1ccc2c(Nc3ccc(N4CCOCC4)c(CN4CCCC4)c3)ccnc2c1 ... 187 to 188 °C
O=S1(=O)CC(c2ccc(F)cc2)CN1 (stereo not drawn) ... 155 °C
Nc1ccc(C(=O)NCC(=O)O)cc1F ... 198 to 200 °C
Cn1cnnc1COc1nn2c(-c3ccccc3)nnc2cc1-c1ccccc1 ... 230 to 235 °C

Enquiry: Consider the compound shown here: O=C(O)C(Cc1ccccc1)Oc1ccc(-c2ccc(-c3c(Cc4ccc(O)c(O)c4)sc4ccccc34)cc2)cc1 (stereo not drawn) What is its recorded melting point?
Return: 108 to 110 °C

Enquiry: Record request: melting point value, item `O=[N+]([O-])c1ccc(Br)cc1O`
Return: 40 to 42 °C

Enquiry: # lookup: melting point of O=C1CCC(C(=O)O)C(=O)N1 (stereo not drawn)
Return: 116 to 118 °C

Enquiry: // melting point lookup, key: `CC(=O)NC(C)(C)c1ccc(CN2CCN(c3nccs3)CC2)cc1`
Return: 118 to 120 °C

Enquiry: Any idea what melting point was measured for `COc1cc(-c2cc3ccccc3[nH]2)ccc1OS(=O)(=O)c1ccccc1` ?
Return: 156 °C

Enquiry: Would you mind telling me what melting point value was observed for `CCOC(=O)c1cnc2nn(C)cc2c1N1CCCCC1` ?
Return: 185 to 188 °C

Enquiry: Record request: melting point value, item `Cc1ccc(I)cc1Cc1ccc(-c2ccc(F)cc2)s1`
Return: 109 to 110 °C

Enquiry: Entry under review: OCC(O)Cc1nccn1CCCCc1ccc(OCc2coc(/C=C/c3ccc(C(F)(F)F)cc3)n2)cc1 (stereo not drawn) . Reported melting point?
Return: 142 to 143 °C

Enquiry: Query: melting point; subject: `CC1(C#N)CN(C(c2ccccc2)c2ccccc2)C1`
Return: 78 to 80 °C

Enquiry: May I ask what melting point has been recorded for `O=C(NCCCl)Oc1ccccc1` ?
Return: 65 to 67 °C

Enquiry: Please give the measured melting point for this compound: CCCNC(=O)C1CC(=O)N(Cc2ccccc2)C1 (stereo not drawn)
Return: 86 to 87 °C

Enquiry: I am curious: what melting point value has been reported for `CC(C)(C)OC(=O)N1CCOc2ccccc21` ?
Return: 78 to 79 °C

Enquiry: If you can, please state the reported melting point value of `O=C(O)CCc1oc(-n2ccnc2CO)nc1-c1ccc(Cl)cc1` .
Return: 171 to 173 °C
